All values here come from ChEMBL document CHEMBL4414631.

- Target of assay: Phosphatidylinositol 4,5-bisphosphate 3-kinase catalytic subunit alpha isoform (Homo sapiens)
- Sequence (P42336 whole entry, canonical isoform): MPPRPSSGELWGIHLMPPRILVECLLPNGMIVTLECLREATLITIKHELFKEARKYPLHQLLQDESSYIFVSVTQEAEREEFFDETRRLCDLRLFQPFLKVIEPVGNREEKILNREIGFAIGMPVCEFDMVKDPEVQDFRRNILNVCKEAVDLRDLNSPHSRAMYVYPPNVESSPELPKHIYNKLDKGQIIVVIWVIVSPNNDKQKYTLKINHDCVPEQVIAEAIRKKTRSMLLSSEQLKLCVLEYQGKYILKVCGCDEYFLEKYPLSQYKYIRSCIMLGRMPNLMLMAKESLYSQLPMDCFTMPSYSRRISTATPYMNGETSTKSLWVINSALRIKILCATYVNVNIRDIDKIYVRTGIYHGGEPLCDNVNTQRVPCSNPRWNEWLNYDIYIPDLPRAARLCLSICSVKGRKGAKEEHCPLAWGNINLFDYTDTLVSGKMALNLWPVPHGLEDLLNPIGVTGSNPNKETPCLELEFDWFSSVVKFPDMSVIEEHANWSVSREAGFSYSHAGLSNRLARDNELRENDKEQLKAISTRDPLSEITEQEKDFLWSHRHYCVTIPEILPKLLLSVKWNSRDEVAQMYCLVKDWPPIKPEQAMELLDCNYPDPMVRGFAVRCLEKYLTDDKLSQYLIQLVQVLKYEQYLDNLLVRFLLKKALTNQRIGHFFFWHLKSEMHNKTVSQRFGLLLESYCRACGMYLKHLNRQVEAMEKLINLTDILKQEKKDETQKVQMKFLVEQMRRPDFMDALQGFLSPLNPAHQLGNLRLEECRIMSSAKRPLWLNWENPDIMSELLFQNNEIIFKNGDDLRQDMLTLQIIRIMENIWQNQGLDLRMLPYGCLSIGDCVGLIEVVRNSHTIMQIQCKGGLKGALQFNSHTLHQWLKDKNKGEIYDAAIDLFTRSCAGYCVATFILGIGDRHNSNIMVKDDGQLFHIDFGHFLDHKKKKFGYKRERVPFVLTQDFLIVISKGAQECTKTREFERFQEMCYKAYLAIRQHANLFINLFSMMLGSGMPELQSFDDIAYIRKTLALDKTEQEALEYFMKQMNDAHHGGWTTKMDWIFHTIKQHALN
Readout type: IC50
Note to self: number, then unit, no commentary.

INPUT: Entry `CC(=O)NC1CCN(Cc2cc3nc(-c4cccc5[nH]ncc45)nc(N4CCOCC4)c3s2)CC1` : reported IC50 = ?
OUTPUT: 631 nM

INPUT: # repeat for CC(=O)N(C)C1CCN(Cc2cc3nc(-c4cnc(N)nc4)nc(N4CCOCC4)c3s2)C1 (racemic)
OUTPUT: 20 nM

INPUT: # repeat for CC(=O)NC1CCCN(Cc2cc3nc(-c4cnc(N)nc4)nc(N4CCOCC4)c3s2)C1 (racemic)
OUTPUT: 126 nM

INPUT: # repeat for `CN(C1CCN(Cc2cc3nc(-c4cccc5[nH]ncc45)nc(N4CCOCC4)c3s2)CC1)S(C)(=O)=O`
OUTPUT: 316 nM

---

- Target of assay: Phosphatidylinositol 4,5-bisphosphate 3-kinase catalytic subunit delta isoform (Homo sapiens)
- Sequence (O00329 whole entry): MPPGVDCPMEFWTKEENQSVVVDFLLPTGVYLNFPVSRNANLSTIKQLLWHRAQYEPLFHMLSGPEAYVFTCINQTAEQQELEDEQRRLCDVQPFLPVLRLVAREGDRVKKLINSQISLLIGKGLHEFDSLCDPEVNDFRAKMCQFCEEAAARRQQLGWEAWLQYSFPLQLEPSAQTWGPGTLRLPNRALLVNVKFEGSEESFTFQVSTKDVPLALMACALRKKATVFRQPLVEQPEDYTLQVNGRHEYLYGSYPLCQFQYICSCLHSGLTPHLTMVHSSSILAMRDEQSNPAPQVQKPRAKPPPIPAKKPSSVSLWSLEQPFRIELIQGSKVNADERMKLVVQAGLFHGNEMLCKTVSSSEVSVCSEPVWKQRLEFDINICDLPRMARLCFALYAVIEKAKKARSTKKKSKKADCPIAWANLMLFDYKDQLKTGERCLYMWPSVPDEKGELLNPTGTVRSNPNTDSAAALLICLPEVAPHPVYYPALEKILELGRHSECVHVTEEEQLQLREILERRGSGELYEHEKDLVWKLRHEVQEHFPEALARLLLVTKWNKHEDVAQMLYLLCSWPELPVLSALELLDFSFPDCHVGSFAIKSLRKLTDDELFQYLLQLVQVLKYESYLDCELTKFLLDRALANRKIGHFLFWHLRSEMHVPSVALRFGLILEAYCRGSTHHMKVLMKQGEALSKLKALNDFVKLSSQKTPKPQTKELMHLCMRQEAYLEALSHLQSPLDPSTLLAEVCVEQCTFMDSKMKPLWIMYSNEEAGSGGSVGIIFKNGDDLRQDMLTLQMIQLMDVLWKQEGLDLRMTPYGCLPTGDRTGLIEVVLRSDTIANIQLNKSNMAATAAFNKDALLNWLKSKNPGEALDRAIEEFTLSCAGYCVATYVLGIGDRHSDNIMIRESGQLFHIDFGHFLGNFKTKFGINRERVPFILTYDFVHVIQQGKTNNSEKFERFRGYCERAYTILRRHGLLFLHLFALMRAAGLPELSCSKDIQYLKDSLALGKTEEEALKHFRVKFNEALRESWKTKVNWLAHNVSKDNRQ
Below, each entry is listed with its recorded IC50.
State the answer as a number, implicitly in nM.

// known answers, use as guide
CC(=O)N(C)C1CCN(Cc2cc3nc(-c4cccc5[nH]ncc45)nc(N4CCOCC4)c3s2)C1 (racemic)
20
CN(C1CCN(Cc2cc3nc(-c4cnc(N)nc4)nc(N4CCOCC4)c3s2)CC1)S(C)(=O)=O
7.94
COCC(=O)N(C)C1CCN(Cc2cc3nc(-c4cnc(N)nc4)nc(N4CCOCC4)c3s2)C1 (racemic)
6.31

Note: attention shifts to another entry.
INPUT: Entry CC(=O)N(C)C1CCCN(Cc2cc3nc(-c4cccc5[nH]ncc45)nc(N4CCOCC4)c3s2)C1 (racemic) : reported IC50 = ?
OUTPUT: 39.8

---

Below, each entry is listed with its recorded logD.
- Test: Lipophilicity, logD of compound at pH 7.4 by HPLC-MS analysis
- Protocol conditions: buffer
Please state the value as a number alone, without comment.

// known answers, use as guide
CC(=O)NC1CCN(Cc2cc3nc(-c4cccc5[nH]ncc45)nc(N4CCOCC4)c3s2)C1 (racemic)
3
CS(=O)(=O)NC1CCCN(Cc2cc3nc(-c4cccc5[nH]ccc45)nc(N4CCOCC4)c3s2)C1 (racemic)
5
CNC(=O)NC1CCN(Cc2cc3nc(-c4cccc5[nH]ccc45)nc(N4CCOCC4)c3s2)C1 (racemic)
3.4
CN(C1CCN(Cc2cc3nc(-c4cnc(N)nc4)nc(N4CCOCC4)c3s2)CC1)S(C)(=O)=O
3.3

INPUT: Entry `COCC(=O)NC1CCN(Cc2cc3nc(-c4cccc5[nH]ncc45)nc(N4CCOCC4)c3s2)CC1` : reported logD = ?
OUTPUT: 3.9

INPUT: # repeat for COCC(=O)N(C)C1CCCN(Cc2cc3nc(-c4cnc(N)nc4)nc(N4CCOCC4)c3s2)C1 (racemic)
OUTPUT: 2.8

INPUT: # repeat for `CC(=O)N(C)C1CCN(Cc2cc3nc(-c4cccc5[nH]ccc45)nc(N4CCOCC4)c3s2)CC1`
OUTPUT: 4.4

INPUT: # repeat for CN(C1CCCN(Cc2cc3nc(-c4cnc(N)nc4)nc(N4CCOCC4)c3s2)C1)S(C)(=O)=O (racemic)
OUTPUT: 3.5

INPUT: # repeat for CS(=O)(=O)NC1CCN(Cc2cc3nc(-c4cnc(N)nc4)nc(N4CCOCC4)c3s2)C1 (racemic)
OUTPUT: 2.4

INPUT: # repeat for CN(C1CCCN(Cc2cc3nc(-c4cccc5[nH]ncc45)nc(N4CCOCC4)c3s2)C1)S(C)(=O)=O (racemic)
OUTPUT: 4.9

INPUT: # repeat for CNC(=O)N(C)C1CCCN(Cc2cc3nc(-c4cccc5[nH]ccc45)nc(N4CCOCC4)c3s2)C1 (racemic)
OUTPUT: 4.5

INPUT: # repeat for COCC(=O)NC1CCN(Cc2cc3nc(-c4cnc(N)nc4)nc(N4CCOCC4)c3s2)C1 (racemic)
OUTPUT: 2.3

INPUT: # repeat for CS(=O)(=O)NC1CCN(Cc2cc3nc(-c4cccc5[nH]ccc45)nc(N4CCOCC4)c3s2)C1 (racemic)
OUTPUT: 4.3

---

- Test: Lipophilicity, logD of compound at pH 7.4 by HPLC-MS analysis
- Protocol conditions: buffer
Below, each entry is listed with its recorded logD.
Please state the value as a number alone, without comment.

COCC(=O)NC1CCCN(Cc2cc3nc(-c4cccc5[nH]ncc45)nc(N4CCOCC4)c3s2)C1 (racemic)
4.5
CC(=O)N(C)C1CCCN(Cc2cc3nc(-c4cccc5[nH]ccc45)nc(N4CCOCC4)c3s2)C1 (racemic)
5
CS(=O)(=O)NC1CCCN(Cc2cc3nc(-c4cccc5[nH]ncc45)nc(N4CCOCC4)c3s2)C1 (racemic)
4.3
COCC(=O)N(C)C1CCN(Cc2cc3nc(-c4cccc5[nH]ccc45)nc(N4CCOCC4)c3s2)CC1
4.6
COCC(=O)NC1CCN(Cc2cc3nc(-c4cccc5[nH]ncc45)nc(N4CCOCC4)c3s2)C1 (racemic)
3.4
CN(C1CCN(Cc2cc3nc(-c4cccc5[nH]ncc45)nc(N4CCOCC4)c3s2)C1)S(C)(=O)=O (racemic)
4.6

INPUT: Entry `CC(=O)N(C)[C@@H]1CCN(Cc2cc3nc(-c4cnc(N)nc4)nc(N4CCOCC4)c3s2)C1` : reported logD = ?
OUTPUT: 2.5

---

- Target of assay: Phosphatidylinositol 4,5-bisphosphate 3-kinase catalytic subunit beta isoform (Homo sapiens, UniProt P42338)
- Sequence (P42338 whole entry, canonical isoform): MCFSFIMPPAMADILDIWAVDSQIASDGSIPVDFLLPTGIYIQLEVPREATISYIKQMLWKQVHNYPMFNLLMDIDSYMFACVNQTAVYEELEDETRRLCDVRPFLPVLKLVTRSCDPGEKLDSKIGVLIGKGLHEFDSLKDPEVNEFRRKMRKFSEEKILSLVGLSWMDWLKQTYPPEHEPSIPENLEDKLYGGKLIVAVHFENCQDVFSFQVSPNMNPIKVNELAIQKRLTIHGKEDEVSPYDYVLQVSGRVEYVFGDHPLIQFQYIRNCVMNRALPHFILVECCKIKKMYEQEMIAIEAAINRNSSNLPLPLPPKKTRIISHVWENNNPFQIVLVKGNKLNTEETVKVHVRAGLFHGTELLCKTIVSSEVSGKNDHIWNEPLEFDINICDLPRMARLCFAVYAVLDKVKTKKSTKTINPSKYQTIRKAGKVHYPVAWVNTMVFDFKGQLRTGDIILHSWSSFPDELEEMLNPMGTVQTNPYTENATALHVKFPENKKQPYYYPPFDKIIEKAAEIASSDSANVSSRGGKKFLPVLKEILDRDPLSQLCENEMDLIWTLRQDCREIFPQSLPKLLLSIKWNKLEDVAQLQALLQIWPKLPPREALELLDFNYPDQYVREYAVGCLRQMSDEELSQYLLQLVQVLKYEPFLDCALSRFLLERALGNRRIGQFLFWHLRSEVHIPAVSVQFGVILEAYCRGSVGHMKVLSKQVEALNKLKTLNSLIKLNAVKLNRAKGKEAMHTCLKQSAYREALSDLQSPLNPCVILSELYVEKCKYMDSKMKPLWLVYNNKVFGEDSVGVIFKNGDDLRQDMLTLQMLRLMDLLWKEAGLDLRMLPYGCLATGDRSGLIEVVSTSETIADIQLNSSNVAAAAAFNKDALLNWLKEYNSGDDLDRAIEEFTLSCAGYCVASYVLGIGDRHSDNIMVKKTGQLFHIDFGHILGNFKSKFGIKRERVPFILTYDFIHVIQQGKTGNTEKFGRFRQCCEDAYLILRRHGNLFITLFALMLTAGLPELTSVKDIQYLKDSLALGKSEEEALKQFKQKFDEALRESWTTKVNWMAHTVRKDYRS
- Test: Inhibition of PI3Kbeta (unknown origin) using biotin-PIP3 as substrate preincubated for 15 mins followed by substrate addition and measured after 60 mins by fluorescence polarization assay
Below, each entry is listed with its recorded pIC50.
Scale for pIC50: -log10 of concentration given in mol/L; no unit attached.

// known answers, use as guide
COCC(=O)N(C)C1CCN(Cc2cc3nc(-c4cccc5[nH]ccc45)nc(N4CCOCC4)c3s2)C1 (racemic)
5.60
CNC(=O)NC1CCN(Cc2cc3nc(-c4cccc5[nH]ccc45)nc(N4CCOCC4)c3s2)C1 (racemic)
5.70
CC(=O)NC1CCN(Cc2cc3nc(-c4cccc5[nH]ncc45)nc(N4CCOCC4)c3s2)C1 (racemic)
5.40
CC(=O)N(C)C1CCN(Cc2cc3nc(-c4cccc5[nH]ccc45)nc(N4CCOCC4)c3s2)C1 (racemic)
6.30
CC(=O)N(C)C1CCCN(Cc2cc3nc(-c4cccc5[nH]ccc45)nc(N4CCOCC4)c3s2)C1 (racemic)
5.60
CC(=O)N(C)C1CCN(Cc2cc3nc(-c4cccc5[nH]ncc45)nc(N4CCOCC4)c3s2)C1 (racemic)
6.00

INPUT: Entry `CC(=O)NC1CCN(Cc2cc3nc(-c4cnc(N)nc4)nc(N4CCOCC4)c3s2)CC1` : reported pIC50 = ?
OUTPUT: 5.80

INPUT: # repeat for COCC(=O)NC1CCCN(Cc2cc3nc(-c4cccc5[nH]ncc45)nc(N4CCOCC4)c3s2)C1 (racemic)
OUTPUT: 5.20
